Target: T. gondii ME49Luc in IFN-y HeLa, luciferase, 72 h
Assay: T. gondii growth inhibition with IFN-gamma, dose response, cell-based, ME49Luc, HeLa, luciferase, 72 h (AID 1259418)
Results filed as inconclusive are left out. Activity calls are given as the source filed them.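 Rule for the calls: active = fitted half-maximal concentration of signal decrease at or below twice the sample's top tested concentration; inconclusive = flat curve between -70 and -30 percent, or poor fit; inactive = flat within 30 percent, signal rise, or potency above limit.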
Entry note: the call must match one of active, inactive

Query :: So what was the verdict on Cc1ccccc1-c1nc(CN2CCN(C(=O)Nc3ccc(F)cc3)CC2)c(C)o1 in this test?
Result :: inactive

Query :: Same read-out for Clc1ccc(CNc2nc(SCc3cccc(Cl)c3)nc3ccccc23)cc1 ?
Result :: active

Query :: Same read-out for COc1cccc(NC(=O)N2CCc3nc(-c4ccc(C)cc4)sc3C2)c1 ?
Result :: active

Query :: Same read-out for COc1ccccc1NC(=O)Nc1ccc(-c2nc(-c3ccc(C)cc3C)co2)cc1 ?
Result :: active

Query :: Same read-out for COc1cccc(-c2ccc3c(c2)[C@@H]2[C@@H](CCN2S(=O)(=O)c2ccccc2F)[C@@H](CO)N3)c1 ?
Result :: active

Query :: Same read-out for CCN(C[C@@H]1N[C@@H](CO)[C@H]1c1ccc(-c2ccc(F)cc2)cc1)C(=O)CN(C)C ?
Result :: active

Query :: Same read-out for N#C[C@@H]1N[C@H](CO)[C@H]1c1ccc(-c2cccc(F)c2)cc1 ?
Result :: active

* * *

Target: T. gondii ME49Luc in IFN-y HeLa, luciferase, 72 h
Assay: T. gondii growth inhibition with IFN-gamma, dose response, cell-based, ME49Luc, HeLa, luciferase, 72 h (AID 1259418)
Results filed as inconclusive are left out. Active and inactive are the calls of the source.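 How the source made its calls: active means fitted half-maximal concentration of signal decrease at or below twice the sample's top tested concentration; inconclusive means flat curve between -70 and -30 percent, or poor fit; inactive means flat within 30 percent, signal rise, or potency above limit.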
Entry note: the call must match one of Yes (active), No (inactive)

Query :: So what was the verdict on Cc1cc(C(F)(F)F)nn1CC(=O)N1CCCC1c1cc(C(C)C)on1 (stereo unspecified) in this test?
Result :: Yes

Query :: Same read-out for CCc1ccc(S(=O)(=O)N2CCC3(CC2)NCCN=C3NCc2cccc(F)c2)cc1 ?
Result :: Yes

Query :: Same read-out for O=S(=O)(c1ccc2c(c1)CCCC2)N1CCC2(CC1)NCCN=C2NC1CCCCCC1 ?
Result :: Yes

Query :: Same read-out for Cc1ccc(S(=O)(=O)N2CCC3(CC2)NCCN=C3NCc2ccccc2F)cc1C ?
Result :: Yes

Query :: Same read-out for Cc1ccc(NC(=O)N2CCN(Cc3nc(-c4ccccc4C)oc3C)CC2)cc1F ?
Result :: No

Query :: Same read-out for COc1ccc(S(=O)(=O)N(C)C[C@H]2Oc3c(NC(=O)c4nc5ccccc5s4)cccc3C(=O)N([C@@H](C)CO)C[C@H]2C)cc1 ?
Result :: Yes

* * *

Target: T. gondii ME49Luc in IFN-y HeLa, luciferase, 72 h
Assay: T. gondii growth inhibition with IFN-gamma, dose response, cell-based, ME49Luc, HeLa, luciferase, 72 h (AID 1259418)
Results filed as inconclusive are left out. The source made the active and inactive calls.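 How the source made its calls: active means fitted half-maximal concentration of signal decrease at or below twice the sample's top tested concentration; inconclusive means flat curve between -70 and -30 percent, or poor fit; inactive means flat within 30 percent, signal rise, or potency above limit.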
Entry note: the call must match one of Yes = active, No = inactive

Query :: So what was the verdict on COc1ccc(NS(=O)(=O)c2cc3c4c(c2)CCC(=O)N4CCC3)cc1OC in this test?
Result :: Yes

Query :: Same read-out for O=C(O)CCc1nc2sc3c(c2c(=O)[nH]1)CCCC3 ?
Result :: No

Query :: Same read-out for COc1cccc(-c2nc(C)c(-c3ccc(SCc4cccc(Cl)c4)nn3)s2)c1 ?
Result :: Yes

Query :: Same read-out for CC(C)Oc1ccc(NC(=O)c2nc3c(n2C(C)C)CCN(C(=O)c2ccccc2)C3)cc1 ?
Result :: Yes

Query :: Same read-out for CCCCCCCCCCCCCCCC[n+]1ccccc1 ?
Result :: Yes

Query :: Same read-out for Cc1ccc(CSC2=Nc3ccccc3C3=NC(CCC(=O)NCc4ccc5c(c4)OCO5)C(=O)N23)c(C)c1 (centres undefined) ?
Result :: Yes

Query :: Same read-out for Cc1ccccc1S(=O)(=O)N1CCCCN2[C@H](C1)[C@@H](c1ccc(C#CCN(C)C)cc1)[C@@H]2CO ?
Result :: Yes

Query :: Same read-out for C/C=C/c1ccc([C@H]2[C@@H](CO)N3CCCCN(S(=O)(=O)c4ccc(OC)cc4)C[C@H]23)cc1 ?
Result :: Yes

Query :: Same read-out for O=C(NC1CCCCC1)N1C[C@@H]2N[C@H](C1)C2c1ccc(-c2ccc(F)cc2)cc1 (some centres undefined) ?
Result :: Yes

Query :: Same read-out for CCCCc1ccc(Nc2ncnc3c2cnn3-c2ccc(C)cc2C)cc1 ?
Result :: Yes

Query :: Same read-out for Cc1cccc(CNC2=NCCNC23CCN(S(=O)(=O)c2ccc(C(C)C)cc2)CC3)c1 ?
Result :: Yes

Query :: Same read-out for COc1ccc(C#Cc2ccc([C@@H]3[C@@H](CO)N4C(=O)CN(C(=O)NC(C)C)C[C@@H]34)cc2)cc1 ?
Result :: Yes

Query :: Same read-out for O=C(NCCc1csc(-c2ccccc2)n1)C1CCN(C(=O)c2ccccc2Br)CC1 ?
Result :: Yes

Query :: Same read-out for COc1cccc(NC(=O)N2CCN(Cc3nc(-c4ccc(C)cc4)oc3C)CC2)c1 ?
Result :: Yes
